assay: Biodistribution experiments; assay type: in vivo, healthy C57BL/6J mice; conditions: healthy mice, i.v., 5 min p.i.

{"columns": ["compound", "brain uptake at 5 min p.i."],
 "data": [
  ["[18F]c1ccc(-c2csc(-c3nc(-c4ccc5c(c4)OCO5)cs3)n2)cn1 [[^18F]d6]", "5.79 %ID/g"],
  ["COc1ccc(-c2csc(-c3nc(-c4cnc5c(c4)OCO5)cs3)n2)cc1[18F] [[^18F]d4]", "4.63 %ID/g"],
  ["COc1ccc(-c2csc(-c3nc(-c4ccc5c(c4)OCO5)cs3)n2)cc1[18F] [[^18F]d2]", "1.58 %ID/g"],
  ["[18F]c1ccc(-c2csc(-c3nc(-c4cnc5c(c4)OCO5)cs3)n2)cn1 [[^18F]d8]", "5.13 %ID/g"]
]}
